# assay.target: Glucocorticoid Receptor of Rat Thymus (Rattus norvegicus, UniProt P06536)
# Construct: The thymuses were removed and homogenized at 0° C; from tissue; host or cells: thymus cytosol (105,000 g supernatant) of adrenalectomised male Sprague-Dawley rats
# Sequence (P06536 whole entry): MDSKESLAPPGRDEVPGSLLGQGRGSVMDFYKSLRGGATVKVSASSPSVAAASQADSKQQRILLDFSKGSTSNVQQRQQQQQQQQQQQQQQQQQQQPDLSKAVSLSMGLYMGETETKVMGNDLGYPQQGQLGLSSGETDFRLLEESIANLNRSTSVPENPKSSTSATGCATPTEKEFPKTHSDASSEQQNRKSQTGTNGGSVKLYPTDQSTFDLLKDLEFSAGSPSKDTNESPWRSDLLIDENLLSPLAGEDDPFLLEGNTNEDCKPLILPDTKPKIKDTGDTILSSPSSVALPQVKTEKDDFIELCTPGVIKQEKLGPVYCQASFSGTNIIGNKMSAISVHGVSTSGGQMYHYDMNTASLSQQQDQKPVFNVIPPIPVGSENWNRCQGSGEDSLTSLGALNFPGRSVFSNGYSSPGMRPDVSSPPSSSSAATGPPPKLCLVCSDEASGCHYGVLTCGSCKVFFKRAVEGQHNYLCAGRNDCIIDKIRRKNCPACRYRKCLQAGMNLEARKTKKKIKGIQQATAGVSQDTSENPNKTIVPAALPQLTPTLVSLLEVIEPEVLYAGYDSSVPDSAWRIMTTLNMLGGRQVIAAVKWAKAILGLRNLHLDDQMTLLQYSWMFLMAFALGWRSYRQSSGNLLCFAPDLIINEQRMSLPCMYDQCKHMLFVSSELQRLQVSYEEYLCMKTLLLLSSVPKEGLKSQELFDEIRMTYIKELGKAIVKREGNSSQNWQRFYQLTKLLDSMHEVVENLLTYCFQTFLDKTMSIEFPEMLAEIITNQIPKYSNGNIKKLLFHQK
# experiment: Relative affinity of the bond, glucocorticoid receptor (tritiated dexamethasone displacement)
# Format: binding
# measurement.context: incubation 4 H at 0° C.; RAB=100(CH)/(CX)
property.measured: Relative affinity of the bond (RAB), Glucocoticoid, 4 H
Answer using only a numeral; do not append any unit.

Some compounds with recorded Relative affinity of the bond (RAB), Glucocoticoid, 4 H:
cpd_smiles=CC(C)N(C)C(=O)CCCCCCCCCC[C@H]1C[C@]2(C)[C@@H](O)CC[C@H]2[C@@H]2CCc3cc(O)ccc3[C@@H]12 assay_target="Glucocorticoid Receptor of Rat Thymus (Rattus norvegicus, UniProt P06536)" measured_result=12
cpd_smiles=CCCCN(C)C(=O)CCCCCCCCCCC[C@H]1C[C@]2(C)[C@@H](O)CC[C@H]2[C@@H]2CCc3cc(O)ccc3[C@@H]12 assay_target="Glucocorticoid Receptor of Rat Thymus (Rattus norvegicus, UniProt P06536)" measured_result=2

Next:
Consider CN(Cc1ccccc1)C(=O)CCCCCCCCCC[C@H]1C[C@]2(C)[C@@H](O)CC[C@H]2[C@@H]2CCC3=CC(=O)CCC3=C12 . Its measured Relative affinity of the bond (RAB), Glucocoticoid, 4 H is 3

* * *

Listed here are compounds together with their documented Relative affinity of the bond (RAB), Mineralocorticoid, 1 H.
# assay.target: Mineralocorticoid Receptor of the Rats' Kidney (Rattus norvegicus, UniProt P22199)
# Construct: The kidneys were then removed, decapsulated and homogenized at 0° C; from tissue; host or cells: kidney cytosol (105,000 g supernatant) of adrenalectomised male Sprague-Dawley rats
# Sequence (P22199 whole entry): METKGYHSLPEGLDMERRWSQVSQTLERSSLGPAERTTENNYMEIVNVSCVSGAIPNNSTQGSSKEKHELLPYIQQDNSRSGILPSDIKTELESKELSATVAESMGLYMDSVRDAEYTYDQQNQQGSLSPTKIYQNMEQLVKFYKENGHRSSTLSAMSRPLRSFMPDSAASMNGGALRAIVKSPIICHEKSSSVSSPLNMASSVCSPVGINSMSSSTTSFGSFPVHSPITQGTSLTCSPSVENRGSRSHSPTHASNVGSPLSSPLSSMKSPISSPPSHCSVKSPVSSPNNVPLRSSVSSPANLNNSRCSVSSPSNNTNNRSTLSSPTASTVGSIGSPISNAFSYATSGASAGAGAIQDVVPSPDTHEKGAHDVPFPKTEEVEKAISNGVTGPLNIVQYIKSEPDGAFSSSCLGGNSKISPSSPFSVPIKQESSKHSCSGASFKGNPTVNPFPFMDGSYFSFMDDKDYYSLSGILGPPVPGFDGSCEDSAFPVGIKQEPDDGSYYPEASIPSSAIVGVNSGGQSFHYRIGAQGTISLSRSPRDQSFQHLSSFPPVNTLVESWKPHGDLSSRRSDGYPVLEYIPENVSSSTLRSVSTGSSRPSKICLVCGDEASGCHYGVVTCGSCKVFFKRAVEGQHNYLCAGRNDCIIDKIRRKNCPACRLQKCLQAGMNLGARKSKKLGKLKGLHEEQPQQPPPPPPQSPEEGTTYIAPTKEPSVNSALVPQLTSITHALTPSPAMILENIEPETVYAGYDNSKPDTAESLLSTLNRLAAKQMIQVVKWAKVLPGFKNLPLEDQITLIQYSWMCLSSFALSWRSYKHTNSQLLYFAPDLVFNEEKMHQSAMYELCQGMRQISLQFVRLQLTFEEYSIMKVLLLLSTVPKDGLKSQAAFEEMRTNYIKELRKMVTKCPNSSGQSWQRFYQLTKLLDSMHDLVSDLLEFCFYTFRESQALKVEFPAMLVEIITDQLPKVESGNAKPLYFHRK
# experiment: Relative affinity of the bond, mineralocorticoid receptor (tritiated aldosterone displacement)
# Type: binding
# measurement.context: incubation 1 H at 0° C.; RAB=100(CH)/(CX)
Answer using only a numeral; do not append any unit.

Some compounds with recorded Relative affinity of the bond (RAB), Mineralocorticoid, 1 H:
compound="CN(C)CCN(C)C(=O)CCCCCCCCCC[C@H]1C[C@]2(C)[C@@H](O)CC[C@H]2[C@@H]2CCC3=CC(=O)CCC3=C12 [Example 19]" measured_result=0.7
compound="CCCCN(C)C(=O)CCCCCCCCCCC[C@H]1C[C@]2(C)[C@@H](O)CC[C@H]2[C@@H]2CCc3cc(O)ccc3[C@@H]12 [Example 24]" measured_result=0
compound="CC#C[C@]1(O)CC[C@H]2[C@@H]3CCC4=CC(=O)CCC4=C3[C@@H](CCCCCCCCCCC(=O)NCCCC)C[C@@]21C [Example 22]" measured_result=0
compound="CC(C)N(C)C(=O)CCCCCCCCCC[C@H]1C[C@]2(C)[C@@H](O)CC[C@H]2[C@@H]2CCc3cc(O)ccc3[C@@H]12 [Example 16]" measured_result=0
compound="CN(Cc1ccccc1)C(=O)CCCCCCCCCC[C@H]1C[C@]2(C)[C@@H](O)CC[C@H]2[C@@H]2CCC3=CC(=O)CCC3=C12 [Example 17]" measured_result=2

Next:
Consider CCCCN(C)C(=O)CCCCCCCCCC[C@H]1C[C@]2(C)[C@@H](O)CC[C@H]2[C@@H]2CCc3cc(O)ccc3[C@@H]12 [Example 13] . Its measured Relative affinity of the bond (RAB), Mineralocorticoid, 1 H is 0.19

* * *

# assay.target: Progestogen Receptor of Rabbit's Uterus (Oryctolagus cuniculus)
# Construct: The uteri were removed, weighed and homogenized at 0° C; from tissue; host or cells: uterine cytosol (150,000 g supernatant) of estradiol-primed immature rabbits
# experiment: Relative affinity of the bond, progestogen receptor (tritiated product R displacement)
# Type: binding
# measurement.context: incubation 24 H at 0° C.; RAB=100(CH)/(CX)
Listed here are compounds together with their documented Relative affinity of the bond (RAB), Progestogen, 24 H.
Answer using only a numeral; do not append any unit.

Simply: CCCCN(C)C(=O)CCCCCCCCCCC[C@H]1C[C@]2(C)[C@@H](O)CC[C@H]2[C@@H]2CCc3cc(O)ccc3[C@@H]12 , Progestogen Receptor of Rabbit's Uterus (Oryctolagus cuniculus), Relative affinity of the bond (RAB), Progestogen, 24 H = 0

Simply: CN(Cc1ccccc1)C(=O)CCCCCCCCCC[C@H]1C[C@]2(C)[C@@H](O)CC[C@H]2[C@@H]2CCC3=CC(=O)CCC3=C12 , Progestogen Receptor of Rabbit's Uterus (Oryctolagus cuniculus), Relative affinity of the bond (RAB), Progestogen, 24 H = 16

Simply: CC#C[C@]1(O)CC[C@H]2[C@@H]3CCC4=CC(=O)CCC4=C3[C@@H](CCCCCCCCCCC(=O)NCCCC)C[C@@]21C , Progestogen Receptor of Rabbit's Uterus (Oryctolagus cuniculus), Relative affinity of the bond (RAB), Progestogen, 24 H = 21

* * *

# assay.target: Androgen Receptor of Rat's Prostate (Rattus norvegicus)
# Construct: Their prostates were removed, weighed and homogenized at 0° C; from tissue; host or cells: prostate cytosol (105,000 g supernatant) of castrated male Sprague-Dawley rats
# Sequence (P15207 whole entry S389L): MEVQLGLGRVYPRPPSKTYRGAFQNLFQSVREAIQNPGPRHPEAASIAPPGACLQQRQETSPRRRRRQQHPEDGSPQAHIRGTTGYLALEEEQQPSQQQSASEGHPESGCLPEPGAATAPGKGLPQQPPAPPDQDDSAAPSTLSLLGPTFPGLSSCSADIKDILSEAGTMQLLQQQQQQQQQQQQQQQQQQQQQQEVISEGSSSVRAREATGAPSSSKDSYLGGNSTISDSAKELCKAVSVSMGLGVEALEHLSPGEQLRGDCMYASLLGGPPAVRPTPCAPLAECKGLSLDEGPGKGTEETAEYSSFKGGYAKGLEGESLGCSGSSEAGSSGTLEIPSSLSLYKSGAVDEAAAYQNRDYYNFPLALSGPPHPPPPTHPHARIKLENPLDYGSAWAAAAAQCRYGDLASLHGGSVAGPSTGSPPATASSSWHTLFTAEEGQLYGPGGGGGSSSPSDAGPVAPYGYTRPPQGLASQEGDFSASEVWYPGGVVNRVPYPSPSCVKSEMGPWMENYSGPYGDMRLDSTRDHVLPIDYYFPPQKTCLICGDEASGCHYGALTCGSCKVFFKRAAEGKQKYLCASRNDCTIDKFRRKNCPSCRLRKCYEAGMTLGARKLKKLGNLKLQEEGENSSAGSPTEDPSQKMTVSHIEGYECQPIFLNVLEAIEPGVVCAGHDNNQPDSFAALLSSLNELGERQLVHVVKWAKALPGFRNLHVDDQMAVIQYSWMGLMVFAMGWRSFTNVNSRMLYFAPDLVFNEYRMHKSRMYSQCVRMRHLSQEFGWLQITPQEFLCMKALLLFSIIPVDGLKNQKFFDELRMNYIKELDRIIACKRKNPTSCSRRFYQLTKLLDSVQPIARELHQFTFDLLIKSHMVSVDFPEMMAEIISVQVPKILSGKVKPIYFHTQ
# experiment: Relative affinity of the bond, androgen receptor (tritiated testosterone displacement)
# Type: binding
# measurement.context: incubation 0.5 H at 0° C.; RAB=100(CH)/(CX)
property.measured: Relative affinity of the bond (RAB), Androgen, 0.5 H
Answer using only a numeral; do not append any unit.

Some molecules with recorded Relative affinity of the bond (RAB), Androgen, 0.5 H:
molecule="CC(C)N(C)C(=O)CCCCCCCCCC[C@H]1C[C@]2(C)[C@@H](O)CC[C@H]2[C@@H]2CCc3cc(O)ccc3[C@@H]12 [Example 16]" measured_result=0
molecule="CN(C)CCN(C)C(=O)CCCCCCCCCC[C@H]1C[C@]2(C)[C@@H](O)CC[C@H]2[C@@H]2CCC3=CC(=O)CCC3=C12 [Example 19]" measured_result=11
molecule="CCCCN(C)C(=O)CCCCCCCCCCC[C@H]1C[C@]2(C)[C@@H](O)CC[C@H]2[C@@H]2CCc3cc(O)ccc3[C@@H]12 [Example 24]" measured_result=0
molecule="CN(Cc1ccccc1)C(=O)CCCCCCCCCC[C@H]1C[C@]2(C)[C@@H](O)CC[C@H]2[C@@H]2CCC3=CC(=O)CCC3=C12 [Example 17]" measured_result=0.12
molecule="CCCCN(C)C(=O)CCCCCCCCCC[C@H]1C[C@]2(C)[C@@H](O)CC[C@H]2[C@@H]2CCc3cc(O)ccc3[C@@H]12 [Example 13]" measured_result=0

Next:
Consider CC#C[C@]1(O)CC[C@H]2[C@@H]3CCC4=CC(=O)CCC4=C3[C@@H](CCCCCCCCCCC(=O)NCCCC)C[C@@]21C [Example 22] . Its measured Relative affinity of the bond (RAB), Androgen, 0.5 H is 0.0

* * *

Listed here are molecules together with their documented pIC50.
# System: MCF-7 mammary tumoral cells
# experiment: Anti-proliferative activity upon the growth of MCF-7 cells (DNA measurement with DABA)
# Type: cell-based
# measurement.context: 6 days, inhibition of the increase of DNA, read-out: concentration which inhibited the growth of MCF7 to an extent of 50% (IC50)
Conceptually, pIC50 converts a concentration in mol/L into minus its log10.

Some molecules with recorded pIC50:
cpd_smiles=CCCCN(C)C(=O)CCCCCCCSc1ccc([C@H]2C[C@]3(C)[C@@H](O)CC[C@H]3[C@@H]3CCc4cc(O)ccc4[C@H]32)cc1 property_measured=pIC50 measured_result=10.82
cpd_smiles=CCCCN(C)C(=O)CCCCCC#Cc1ccc([C@H]2C[C@]3(C)[C@@H](O)CC[C@H]3[C@@H]3CCc4cc(O)ccc4[C@H]32)cc1 property_measured=pIC50 measured_result=10.40
cpd_smiles=C#C[C@]1(O)CC[C@H]2[C@@H]3CCc4cc(O)ccc4[C@H]3[C@@H](CCCCCCCCCCC(=O)N(C)C(C)C)C[C@@]21C property_measured=pIC50 measured_result=11.00

Simply: CCCCN(C)C(=O)CCCCCCCOc1ccc([C@H]2C[C@]3(C)[C@@H](O)CC[C@H]3[C@@H]3CCc4cc(O)ccc4[C@H]32)cc1 , MCF-7 mammary tumoral cells, pIC50 = 11.22

Simply: CCCCN(C)C(=O)CCCCCCCCCC[C@H]1C[C@]2(C)[C@@H](O)CC[C@H]2[C@@H]2CCc3cc(O)ccc3[C@@H]12 , MCF-7 mammary tumoral cells, pIC50 = 9.30

Simply: CCCCN(C)C(=S)COCCCCCOc1ccc([C@H]2C[C@]3(C)[C@@H](O)CC[C@H]3[C@@H]3CCc4cc(O)ccc4[C@H]32)cc1 , MCF-7 mammary tumoral cells, pIC50 = 10.52

* * *

Listed here are molecules together with their documented Relative affinity of the bond (RAB), Progestogen, 2 H.
# assay.target: Progestogen Receptor of Rabbit's Uterus (Oryctolagus cuniculus, UniProt P06186)
# Construct: The uteri were removed, weighed and homogenized at 0° C; from tissue; host or cells: uterine cytosol (150,000 g supernatant) of estradiol-primed immature rabbits
# Sequence (P06186 whole entry): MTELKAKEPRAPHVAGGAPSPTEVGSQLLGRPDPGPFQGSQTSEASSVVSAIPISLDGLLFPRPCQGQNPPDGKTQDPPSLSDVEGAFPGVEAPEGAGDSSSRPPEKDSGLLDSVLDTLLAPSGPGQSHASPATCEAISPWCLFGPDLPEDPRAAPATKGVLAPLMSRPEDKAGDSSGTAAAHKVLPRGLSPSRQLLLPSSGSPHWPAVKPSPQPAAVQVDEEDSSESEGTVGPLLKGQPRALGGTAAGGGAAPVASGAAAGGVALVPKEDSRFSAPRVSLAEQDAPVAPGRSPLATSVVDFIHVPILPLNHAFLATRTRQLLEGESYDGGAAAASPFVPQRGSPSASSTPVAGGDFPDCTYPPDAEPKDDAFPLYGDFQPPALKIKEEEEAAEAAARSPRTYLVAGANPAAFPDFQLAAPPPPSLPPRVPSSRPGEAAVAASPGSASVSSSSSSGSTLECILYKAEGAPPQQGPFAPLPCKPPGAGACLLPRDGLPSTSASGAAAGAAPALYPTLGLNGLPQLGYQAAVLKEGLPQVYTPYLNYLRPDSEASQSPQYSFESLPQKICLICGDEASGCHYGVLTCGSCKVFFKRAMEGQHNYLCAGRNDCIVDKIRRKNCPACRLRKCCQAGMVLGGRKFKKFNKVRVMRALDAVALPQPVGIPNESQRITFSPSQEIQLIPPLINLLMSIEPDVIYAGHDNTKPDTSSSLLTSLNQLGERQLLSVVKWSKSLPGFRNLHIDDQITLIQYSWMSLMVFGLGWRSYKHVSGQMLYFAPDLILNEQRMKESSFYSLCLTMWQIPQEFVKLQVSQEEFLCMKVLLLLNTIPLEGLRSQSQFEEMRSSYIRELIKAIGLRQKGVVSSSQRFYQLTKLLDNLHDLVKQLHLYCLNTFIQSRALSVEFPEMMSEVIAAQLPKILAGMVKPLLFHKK
# experiment: Relative affinity of the bond, progestogen receptor (tritiated product R displacement)
# Assay type: binding
# measurement.context: incubation 2 H at 0° C.; RAB=100(CH)/(CX)
Answer using only a numeral; do not append any unit.

Some molecules with recorded Relative affinity of the bond (RAB), Progestogen, 2 H:
cpd_smiles=CCCCN(C)C(=O)CCCCCCCCCCC[C@H]1C[C@]2(C)[C@@H](O)CC[C@H]2[C@@H]2CCc3cc(O)ccc3[C@@H]12 assay_target="Progestogen Receptor of Rabbit's Uterus (Oryctolagus cuniculus, UniProt P06186)" measured_result=0
cpd_smiles=CC(C)N(C)C(=O)CCCCCCCCCC[C@H]1C[C@]2(C)[C@@H](O)CC[C@H]2[C@@H]2CCc3cc(O)ccc3[C@@H]12 assay_target="Progestogen Receptor of Rabbit's Uterus (Oryctolagus cuniculus, UniProt P06186)" measured_result=0.5
cpd_smiles=CC#C[C@]1(O)CC[C@H]2[C@@H]3CCC4=CC(=O)CCC4=C3[C@@H](CCCCCCCCCCC(=O)NCCCC)C[C@@]21C assay_target="Progestogen Receptor of Rabbit's Uterus (Oryctolagus cuniculus, UniProt P06186)" measured_result=12

Consider CCCCN(C)C(=O)CCCCCCCCCC[C@H]1C[C@]2(C)[C@@H](O)CC[C@H]2[C@@H]2CCc3cc(O)ccc3[C@@H]12 . Its measured Relative affinity of the bond (RAB), Progestogen, 2 H is 0.0

Consider CN(Cc1ccccc1)C(=O)CCCCCCCCCC[C@H]1C[C@]2(C)[C@@H](O)CC[C@H]2[C@@H]2CCC3=CC(=O)CCC3=C12 . Its measured Relative affinity of the bond (RAB), Progestogen, 2 H is 0

Consider CN(C)CCN(C)C(=O)CCCCCCCCCC[C@H]1C[C@]2(C)[C@@H](O)CC[C@H]2[C@@H]2CCC3=CC(=O)CCC3=C12 . Its measured Relative affinity of the bond (RAB), Progestogen, 2 H is 6
